Target: UniProtKB P55085
Sequence (P55085 26-397): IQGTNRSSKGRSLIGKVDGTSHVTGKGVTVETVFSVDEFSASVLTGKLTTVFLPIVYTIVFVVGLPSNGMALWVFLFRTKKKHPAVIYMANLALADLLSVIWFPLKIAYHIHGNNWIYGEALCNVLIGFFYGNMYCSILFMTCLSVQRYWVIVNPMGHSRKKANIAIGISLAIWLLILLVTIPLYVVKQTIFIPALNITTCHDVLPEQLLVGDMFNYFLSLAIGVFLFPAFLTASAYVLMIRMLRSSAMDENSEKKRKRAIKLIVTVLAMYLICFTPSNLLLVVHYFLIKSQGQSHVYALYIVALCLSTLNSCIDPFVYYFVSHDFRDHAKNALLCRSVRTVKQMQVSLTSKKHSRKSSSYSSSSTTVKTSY
Assay: PAR2 activation (agonist) by intracellular calcium mobilisation in HT29 cells
Assay type: cell-based
Parameters: Agonists of Ca^2+ release in HT29 cells; endogenous in cells; host or cells: HT29 (human cell line, cultured per ATCC information)
Details: Fluo-3 fluorescence, read-out: EC50, agonist or partial agonist of Ca2+ release in HT29 cells
ASSAY ENDPOINT: EC50 (µM)

COMPOUND | MEASURED ON | EC50 [µM]
CC[C@H](C)[C@H](NC(=O)[C@H](CC1CCCCC1)NC(=O)c1ccno1)C(=O)NCc1ccc(OC)cc1 | UniProtKB P55085 | 10
CC[C@H](C)[C@H](NC(=O)[C@H](CC1CCCCC1)NC(=O)c1ccno1)C(=O)N1CCN(c2ccc(F)cc2)CC1 | UniProtKB P55085 | 10
CC[C@H](C)[C@H](NC(=O)[C@H](CC1CCCCC1)NC(=O)c1ccno1)C(=O)N1CCC2(CC1)CN(S(C)(=O)=O)c1ccccc12 | UniProtKB P55085 | 1.8
CC[C@H](C)[C@H](NC(=O)[C@H](CC1CCCCC1)NC(=O)c1ccno1)C(=O)NCc1ccc(F)cc1 | UniProtKB P55085 | 40
CC[C@H](C)[C@H](NC(=O)[C@H](CC1CCCCC1)NC(=O)c1ccno1)C(=O)NCc1ccccc1[N+](=O)[O-] | UniProtKB P55085 | 10
CC[C@H](C)[C@H](NC(=O)[C@H](CC1CCCCC1)NC(=O)c1ccno1)C(=O)NCc1ccccc1 | UniProtKB P55085 | 30

(1) CC[C@H](C)[C@H](NC(=O)[C@H](CC1CCCCC1)NC(=O)c1ccno1)C(=O)NCc1cccc(F)c1
(2) CC[C@H](C)[C@H](NC(=O)[C@H](CC1CCCCC1)NC(=O)c1ccno1)C(=O)N1CCC2(CC1)c1ccccc1C(NCc1ccc(F)cc1)C2O (stereo partly drawn)
[in] API: POST /compare with 1 and 2 ; response names the item with higher EC50. When you have decided, please share the label of that item.
[out] 1
(1: 40 µM, 2: 20 µM)
